The values you see were collected from ChEMBL document CHEMBL1124393.

test: Cytotoxicity was evaluated against the Human diploid cells (HFF); type: cell-based
pIC50: −log10 of the molar value.
measuredAttribute: pIC50

>>> measured("N#Cc1cn([C@@H]2O[C@H](CO)[C@@H](O)[C@H]2O)c2ncnc(N)c12")
7.52
>>> measured("Nc1nc2c(ncn2COC(CO)CO)c(=O)[nH]1")
"< 4.00"
>>> measured("N/C(=N\\O)c1cn(COC(CO)CO)c2ncnc(N)c12")
"< 4.00"
>>> measured("NC(=O)c1cn([C@@H]2O[C@H](CO)[C@@H](O)[C@H]2O)c2ncnc(N)c12")
7.10
>>> measured("Nc1ncnc2c1ccn2COC(CO)CO")
"< 4.00"
>>> measured("NC(=O)c1cn(C(CO)OC(CO)CO)c2ncnc(N)c12 (stereo not drawn)")
"< 4.00"
>>> measured("Nc1nc2c(ncn2COCCO)c(=O)[nH]1")
"< 4.00"
>>> measured("Nc1ncnc2c1ccn2C(CO)OC(CO)CO (stereo not drawn)")
"< 4.00"
>>> measured("N#Cc1cn(COC(CO)CO)c2ncnc(N)c12")
"< 3.49"
>>> measured("NC(=O)c1cn(COC(CO)CO)c2ncnc(N)c12")
"< 3.49"
>>> measured("N#Cc1cn(C(CO)OC(CO)CO)c2ncnc(N)c12 (stereo not drawn)")
"< 4.00"
>>> measured("Nc1ncnc2c1ccn2[C@@H]1O[C@H](CO)[C@@H](O)[C@H]1O")
6.52
>>> measured("NC(=S)c1cn(COC(CO)CO)c2ncnc(N)c12")
"< 4.00"
